TARGET_UNDER_TEST: CDK9/cyclinT1 complex (Homo sapiens)
Sequence (P50750 whole entry, species assumed): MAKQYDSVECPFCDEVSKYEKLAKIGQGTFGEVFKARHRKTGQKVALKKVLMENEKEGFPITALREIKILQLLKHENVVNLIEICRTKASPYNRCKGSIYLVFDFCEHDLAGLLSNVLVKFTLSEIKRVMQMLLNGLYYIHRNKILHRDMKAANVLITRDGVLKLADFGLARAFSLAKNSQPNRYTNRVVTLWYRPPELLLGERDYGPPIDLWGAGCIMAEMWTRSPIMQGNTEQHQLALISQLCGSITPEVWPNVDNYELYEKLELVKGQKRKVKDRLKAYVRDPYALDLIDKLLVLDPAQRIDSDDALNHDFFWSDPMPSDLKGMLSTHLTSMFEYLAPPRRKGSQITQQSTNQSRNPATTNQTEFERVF
Sequence (O60563 whole entry partner, species assumed): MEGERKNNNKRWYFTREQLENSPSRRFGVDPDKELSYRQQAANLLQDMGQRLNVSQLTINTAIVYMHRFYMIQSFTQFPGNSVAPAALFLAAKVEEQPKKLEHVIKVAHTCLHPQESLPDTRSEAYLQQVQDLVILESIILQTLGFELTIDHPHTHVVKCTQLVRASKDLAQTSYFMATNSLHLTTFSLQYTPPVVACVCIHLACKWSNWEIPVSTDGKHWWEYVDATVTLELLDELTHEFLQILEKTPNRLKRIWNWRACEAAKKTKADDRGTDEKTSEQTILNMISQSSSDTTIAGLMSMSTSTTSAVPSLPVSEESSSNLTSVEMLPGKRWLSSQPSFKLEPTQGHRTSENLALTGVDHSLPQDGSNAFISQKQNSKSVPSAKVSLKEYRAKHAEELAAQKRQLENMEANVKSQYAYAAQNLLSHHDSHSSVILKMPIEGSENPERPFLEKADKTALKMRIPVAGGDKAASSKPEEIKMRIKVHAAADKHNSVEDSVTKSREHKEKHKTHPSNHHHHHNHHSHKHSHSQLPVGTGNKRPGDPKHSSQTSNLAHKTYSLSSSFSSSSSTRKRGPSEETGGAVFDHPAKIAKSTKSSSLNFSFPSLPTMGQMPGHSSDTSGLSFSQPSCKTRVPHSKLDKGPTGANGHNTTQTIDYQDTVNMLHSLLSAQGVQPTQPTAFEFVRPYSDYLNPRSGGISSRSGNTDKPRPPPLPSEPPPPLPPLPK
METHOD_SUMMARY: In-vitro enzymatic inhibitory activity testing, CDK9 inhibition assay (Caliper EZ Reader II)
PROTOCOL_CONDITIONS: CDK9/cyclinT1 8 nM, 180 min at 27° C.
Description: CDK12/CyclinK was diluted in an assay buffer (80 mM MES PH 6.5, 0.01% Tween 20, 50 ug/mL BSA, 10 mM MgCl2) to afford a corresponding enzyme solution with the 2.4 concentration. […] A reaction mixture was analyzed on Caliper EZ Reader II by electrophoretic separation of a fluorogenic substrate and a phosphorylated product. Data were calculated by using GraphPad Prism version 6.0, and IC50 values were adjusted and obtained by using a nonlinear regression model of a dose response curve.
MEASURED_PARAMETER: IC50

Output IC50 of FC(F)(F)c1cnc(NC2CCC23CNC3)nc1-c1c[nH]c2nc(N3CCOCC3)ccc12 (stereo not drawn) 5 to 50 µM

For "C[C@@H](CO)Nc1ncc(Cl)c(-c2c[nH]c3c(P(C)(C)=O)cccc23)n1" , write its IC50. > 50 µM

Output IC50 of "FC(F)(F)c1cnc(N[C@@H]2CCC[C@@H]3CNC[C@@H]32)nc1-c1c[nH]c2nc(N3CCOCC3)ccc12" 5 to 50 µM

Please report IC50 for the following compound: "N#Cc1ccc2c(-c3nc(N[C@@H]4CCC45CNC5)ncc3C(F)(F)F)c[nH]c2n1" 5 to 50 µM

Note IC50 for the compound shown: "CP(C)(=O)c1cccc2c(-c3nc(N[C@@H]4CC[C@@]5(CCNC5)C4)ncc3C(F)(F)F)c[nH]c12" 5 to 50 µM

Could you please provide reported IC50 for "CC[C@@H](CO)Nc1ncc(C(F)(F)F)c(-c2c[nH]c3c(P(C)(C)=O)cccc23)n1" ? Thanks! > 50 µM

---

TARGET_UNDER_TEST: CDK2/cyclinE1 complex (Homo sapiens)
METHOD_SUMMARY: In-vitro enzymatic inhibitory activity testing, CDK2 inhibition assay (Caliper EZ Reader II)
Format: biochemical
PROTOCOL_CONDITIONS: CDK2/cyclinE1 0.5 nM, 180 min at 27° C.
# IC50 values compiled below

Example results:
Look up and report measured IC50 for this entry: CC(C)(O)CNc1ncc(C(F)(F)F)c(-c2c[nH]c3c(P(C)(C)=O)cccc23)n1 [Compound 95] 5 to 50 µM

Supply reported IC50 belonging to this molecule: CP(C)(=O)c1cccc2c(-c3nc(N[C@H]4CCC[C@@H]4O)ncc3C(F)(F)F)c[nH]c12 [Compound 155] 0.2 to 5 µM

// Input: C[C@H]1COCCN1c1ccc2c(-c3nc(N[C@@H]4CCC45CNC5)ncc3C(F)(F)F)c[nH]c2n1 [Compound 67] . Output its IC50 only. 5 to 50 µM

Answer with reported IC50 of CP(C)(=O)c1cccc2c(-c3nc(NC4(CO)CC4)ncc3C(F)(F)F)c[nH]c12 [Compound 94] 5 to 50 µM

Others:
Quickly give me recorded IC50 for CP(C)(=O)c1cccc2c(-c3nc(NCC4(O)CCCC4)ncc3C(F)(F)F)c[nH]c12 [Compound 151] 5 to 50 µM

Given the molecule COc1cc(P(C)(C)=O)c2[nH]cc(-c3nc(N[C@@H](C)CO)ncc3C(F)(F)F)c2c1 [Compound 104] , write its reported IC50. 0.2 to 5 µM

Specify reported IC50 for the molecule shown: FC(F)(F)c1cnc(NC2CCCNCC2)nc1-c1c[nH]c2nc(N3CCOCC3)ccc12 (single isomer, unassigned) [Compound 49] 5 to 50 µM

Entry source: patent US20240124504A1
